Measurement record for Mlp37p (periplasmic fragment of Mlp37) (Vibrio cholerae, UniProt A0A0H3AES3); quantity recorded: pKd.
Lab note: report pKd as minus log10 of the concentration in molar units, number only.

{"COMPOUND": "C[C@H](N)C(=O)O [L-alanine]", "pKd": 5.57}
{"COMPOUND": "NCCS(=O)(=O)O [taurine, 2-aminoethanesulfonic acid]", "pKd": 5.49}
{"COMPOUND": "N=C(N)NCCC[C@H](N)C(=O)O [L-arginine]", "pKd": 5.25}

Then there is this compound:
## Task Enter reported pKd observed with Mlp37p (periplasmic fragment of Mlp37) (Vibrio cholerae, UniProt A0A0H3AES3) for N[C@@H](CO)C(=O)O [L-serine]
Sequence (A0A0H3AES3 58-303 limits assumed): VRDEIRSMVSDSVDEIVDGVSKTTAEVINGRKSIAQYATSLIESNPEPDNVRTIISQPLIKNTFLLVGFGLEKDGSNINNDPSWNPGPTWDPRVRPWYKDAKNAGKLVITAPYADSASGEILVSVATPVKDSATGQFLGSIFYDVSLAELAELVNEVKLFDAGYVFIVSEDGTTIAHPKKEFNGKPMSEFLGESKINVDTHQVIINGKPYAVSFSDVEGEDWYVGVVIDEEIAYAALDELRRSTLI
## Result 5.44
